Molecular target: Sec14p of C. glabrata (Candida glabrata)
Sequence (P53989 whole entry): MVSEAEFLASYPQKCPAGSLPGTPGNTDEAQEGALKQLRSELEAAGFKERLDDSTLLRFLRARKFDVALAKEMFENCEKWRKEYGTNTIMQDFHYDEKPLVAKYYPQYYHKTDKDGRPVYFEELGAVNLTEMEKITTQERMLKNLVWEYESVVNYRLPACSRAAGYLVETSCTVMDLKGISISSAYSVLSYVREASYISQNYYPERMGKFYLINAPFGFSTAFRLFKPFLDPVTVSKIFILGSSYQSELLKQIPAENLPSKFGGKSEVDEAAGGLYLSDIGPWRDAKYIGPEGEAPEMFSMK
QUANTITY: pIC50
// pIC50 here means minus log10 of the molar concentration (mol/L)

Q: Any idea what pIC50 came out for O=C(NCc1ccc2c(c1)OCO2)c1ncc(Br)cc1F on Sec14p of C. glabrata (Candida glabrata)?
Ans: 4.96

* * *

System: HCT116 cells
Assay: CellTiter-Glo luminescent cell viability assay
Type: cell-based
Settings: Homo sapiens, HCT-116, 72 h, read-out: IC50 [μM] HCT116
A collection of molecules and their measured IC50

>>> observed_value("O=C(NCc1ccc2c(c1)OCO2)c1ncc(Br)cc1F")
"> 100 µM"

The record that follows has no IC50 shown yet.
Q: Query: IC50; subject: O=C(NCc1ccc2c(c1)OCO2)c1ccc(Br)cc1F
Ans: > 100 µM

* * *

Molecular target: Sec14p of C. albicans (Candida albicans)
Sequence (P46250 whole entry): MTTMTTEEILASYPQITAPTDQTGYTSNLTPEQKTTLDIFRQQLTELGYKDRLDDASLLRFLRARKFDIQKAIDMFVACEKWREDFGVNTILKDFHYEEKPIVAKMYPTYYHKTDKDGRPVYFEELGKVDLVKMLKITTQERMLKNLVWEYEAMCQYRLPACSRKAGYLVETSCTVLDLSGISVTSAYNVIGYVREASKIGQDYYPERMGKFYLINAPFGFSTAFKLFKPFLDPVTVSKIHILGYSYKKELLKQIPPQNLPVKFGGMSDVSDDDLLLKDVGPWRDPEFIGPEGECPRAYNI
Experiment: in vitro [3H]-PtdIns lipid transfer assay, C. albicans Sec14p
Type: biochemical
QUANTITY: IC50

Q: Any idea what IC50 came out for O=C(NCc1ccc2c(c1)OCO2)c1ncc(Br)cc1F on Sec14p of C. albicans (Candida albicans)?
Ans: > 100 µM

* * *

A collection of compounds and their measured IC50
Test system: S. cerevisiae SEC14/sec14
Experiment: growth assay with heterozygous SEC14 deletion strain
Assay type: cell-based, Saccharomyces cerevisiae
Conditions: Saccharomyces cerevisiae, SEC14/SEC14, read-out: IC50 [μM] S. cerevisiae SEC14/sec14
Your answer is read as µM, so omit the unit and give the number.

Q: Query: IC50; subject: O=C(NCc1ccc2c(c1)OCO2)c1ccc(Br)cc1F
Ans: 1.7

Q: Query: IC50; subject: O=C(NCc1ccc2c(c1)OCO2)c1ncc(Br)cc1F
Ans: 9.4
